Just for reference, ChEMBL document CHEMBL1127597 is where these values come from.

- Tested on: Human rhinovirus sp.
- EXPERIMENTAL PROTOCOL: In vitro concentration required to inhibit 80 percent of human rhinovirus 15 serotypes was determined by TCID50 assay
- Format: functional
MEASUREMENT LABEL: MIC80 (µM)

CCc1cc(CCCOc2c(C)cc(-c3ncon3)cc2C)on1 : 3.2
COCc1cc(CCCOc2c(Cl)cc(-c3noc(C)n3)cc2Cl)on1 : 0.18
Cc1nc(-c2cc(C)c(OCCCc3cc(CO)no3)c(C)c2)no1 : 0.73
Cc1cc(CCCOc2c(C)cc(-c3noc(C)n3)cc2C)on1 : 0.26

P = CCOc1nc(-c2cc(C)c(OCCCc3cc(C)no3)c(C)c2)no1
Q = COc1nc(-c2cc(C)c(OCCCc3cc(C)no3)c(C)c2)no1
Exercise: Between these two entries, P and Q , state which has the higher MIC80. Refer to your chosen item by its label in the answer.
Solution: Q
(Q: 0.39 µM, P: 0.23 µM)

A = Cc1cc(CCCOc2c(C)cc(-c3noc(CO)n3)cc2C)on1
B = CCOCc1cc(CCCOc2c(C)cc(-c3noc(C)n3)cc2C)on1
Exercise: Lab note: check whether A or B shows the higher recorded MIC80. Answer = label.
Solution: A
